Test system: Klebsiella pneumoniae
assay info: Antibacterial activity against Klebsiella pneumoniae PLE producing class D beta-lactamase, OXA-48 assessed as reduction in microbial growth incubated for 16 to 20 hrs by broth microdilution method
Assay type: functional
test settings: time 16-20 hrs
property measured: MIC (µg/mL)
Only the number, expressed in µg/mL, is required.

Need MIC, item `Nc1nc(/C(=N/OCC(=O)O)C(=O)N[C@@H]2C(=O)N3[C@@H]2[S@@+]([O-])C[C@@H]2CC(=O)O[C@@]23C(=O)O)ns1` 4

Next: C[C@@H](O/N=C(\C(=O)N[C@@H]1C(=O)N2[C@@H]1[S@@+]([O-])C[C@@H]1CC(=O)O[C@@]12C(=O)O)c1csc(N)n1)C(=O)O (stereo in doubt) 0.5

Lookup C[C@H](O/N=C(\C(=O)N[C@@H]1C(=O)N2[C@@H]1SC[C@@H]1CC(=O)O[C@@]12C(=O)O)c1csc(N)n1)C(=O)O (stereo in doubt) 0.5

Could you do the same for Nc1nc(/C(=N/OCC(=O)O)C(=O)N[C@@H]2C(=O)N3[C@@H]2SC[C@@H]2CC(=O)O[C@@]23C(=O)O)cs1 (stereo in doubt) , please? 1

Next record, please: `CC(C)(O/N=C(\C(=O)N[C@@H]1C(=O)N2C(C(=O)[O-])=C(C[n+]3ccccc3)CS[C@H]12)c1csc(N)n1)C(=O)O` 1

New cases:
Which MIC is listed for Nc1nc(/C(=N/OC2(C(=O)O)CC2)C(=O)N[C@@H]2C(=O)N3[C@@H]2SC[C@@H]2CC(=O)O[C@@]23C(=O)O)cs1 (stereo in doubt) ? 1

Request: CC(C)(O/N=C(\C(=O)N[C@H]1CON(C2(C(=O)O)CCC(=O)O2)C1=O)c1csc(N)n1)C(=O)O (stereo in doubt) 1

Okay, and `Nc1nc(/C(=N/OCC(=O)O)C(=O)N[C@@H]2C(=O)N3[C@@H]2SC[C@@H]2CC(=O)O[C@@]23C(=O)O)c(Cl)s1` ? 16

And the next one, Nc1nc(/C(=N/OCC(=O)O)C(=O)N[C@@H]2C(=O)N3[C@@H]2S(=O)(=O)C[C@@H]2CC(=O)O[C@@]23C(=O)O)cs1 (stereo in doubt) ? 0.5

Also check Nc1nc(/C(=N/OC2(C(=O)O)CC2)C(=O)N[C@@H]2C(=O)N3[C@@H]2[S@@+]([O-])C[C@@H]2CC(=O)O[C@@]23C(=O)O)cs1 (stereo in doubt) 0.5

Similarly, CCO/N=C(\C(=O)N[C@@H]1C(=O)N2[C@@H]1[S@@+]([O-])C[C@@H]1CC(=O)O[C@@]12C(=O)O)c1csc(N)n1 (stereo in doubt) ? 4

====

Tested on: Klebsiella pneumoniae
assay info: Antibacterial activity against Klebsiella pneumoniae PLE producing class D beta-lactamase, OXA-48 assessed as reduction in microbial growth incubated for 16 to 20 hrs by broth microdilution method
Assay type: functional
test settings: time 16-20 hrs
property measured: MIC (µg/mL)
Give just the number in µg/mL; leave the unit off.

For orientation, consider the following solved cases.
Query: MIC; subject: Nc1nc(/C(=N/OCC(=O)O)C(=O)N[C@@H]2C(=O)N3[C@@H]2[S@@+]([O-])C[C@@H]2CC(=O)O[C@@]23C(=O)O)cs1 (stereo in doubt) 0.125

Same question, C[C@H](O/N=C(\C(=O)N[C@@H]1C(=O)N2[C@@H]1[S@@+]([O-])C[C@@H]1CC(=O)O[C@@]12C(=O)O)c1csc(N)n1)C(=O)O (stereo in doubt) this time 1

***
Would you kindly share the measured MIC for CC(C)(O/N=C(\C(=O)N[C@@H]1C(=O)N2[C@@H]1SC[C@@H]1CC(=O)O[C@@]12C(=O)O)c1csc(N)n1)C(=O)O (stereo in doubt) ? 2

====

Reported MIC is given for each of the following compounds.
System: Klebsiella pneumoniae
assay info: Antibacterial activity against Klebsiella pneumoniae PLE producing class D beta-lactamase, OXA-48 assessed as reduction in microbial growth incubated for 16 to 20 hrs by broth microdilution method
Type: functional
test settings: time 16-20 hrs
Remember to follow the number with its unit.

Sample answers from the record:
Lab note: need MIC with Klebsiella pneumoniae for entry `Nc1nc(/C(=N/OCC(=O)O)C(=O)N[C@@H]2C(=O)N3[C@@H]2SC[C@@H]2CC(=O)O[C@@]23C(=O)O)ns1` , please look it up. 1 µg/mL

Entry C[C@@H](O/N=C(\C(=O)N[C@@H]1C(=O)N2[C@@H]1SC[C@@H]1CC(=O)O[C@@]12C(=O)O)c1csc(N)n1)C(=O)O (stereo in doubt) please 1 µg/mL

***
# value lookup — system Klebsiella pneumoniae, readout MIC, item Nc1nc(/C(=N/OCC(=O)O)C(=O)N[C@@H]2C(=O)N3[C@@H]2[S@+]([O-])C[C@@H]2CC(=O)O[C@@]23C(=O)O)cs1 (stereo in doubt) 0.5 µg/mL
